Structures can show the parent of a compound that is named as a salt.
# Ki measurements, system: UniProt:P14842
# Sequence (P14842 whole entry): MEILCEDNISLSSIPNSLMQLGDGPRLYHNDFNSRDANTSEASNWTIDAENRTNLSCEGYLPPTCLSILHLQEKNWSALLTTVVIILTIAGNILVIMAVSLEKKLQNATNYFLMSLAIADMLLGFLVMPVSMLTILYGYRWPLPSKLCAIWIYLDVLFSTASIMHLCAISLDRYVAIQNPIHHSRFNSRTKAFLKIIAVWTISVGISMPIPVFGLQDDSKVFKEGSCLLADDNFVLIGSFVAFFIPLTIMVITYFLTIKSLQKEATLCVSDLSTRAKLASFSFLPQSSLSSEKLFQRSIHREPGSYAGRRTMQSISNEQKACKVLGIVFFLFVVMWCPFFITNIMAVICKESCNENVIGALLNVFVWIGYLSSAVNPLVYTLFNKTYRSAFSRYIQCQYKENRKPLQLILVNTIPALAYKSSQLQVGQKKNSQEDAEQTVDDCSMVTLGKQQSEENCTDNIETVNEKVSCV
Readout label: Ki (nM)

Example molecules with recorded Ki:
CCN1CCN(c2nc(-c3ccc(C#N)cc3)cc3ccccc23)CC1 [Example 62, Hydrochloride]; 4
CCN1CCN(c2nc(-c3ccc(SC[C@@H](C)O)cc3)cc3ccsc23)CC1 [Example 444, dihydrochloride]; 12
CCN1CCN(c2nc(-c3ccc(CCCO)c(Cl)c3)cc3ccccc23)CC1 [Example 30, hydrochloride]; 6.3
CCN1CCN(c2nc(-c3ccc(OCCOC)c(OCCOC)c3)cc3ccccc23)CC1 [Example 43, Hydrochloride]; 66.6
CCN1CCN(c2nc(-c3ccc(O)cc3)cc3ccccc23)CC1 [Example 7]; 81.3
CCN1CCN(c2nc(-c3ccc([C@H]4CC[C@@H](O)CC4)cc3)cc3ccccc23)CC1 [Example 397, Dihydrochloride]; 0.9
CCN1CCN(c2nc(-c3ccc(OCC(C)O)cc3)cc3ccoc23)CC1 (stereo in doubt) [Example 304, dihydrochloride]; 19.4
CCN1CCN(c2nc(-c3ccc(OC)cc3)cc3ccsc23)CC1 [Example 459, dihydrochloride]; 60.1
CCN1CCN(c2nc(-c3ccc(CCCOC)nc3)cc3ccccc23)CC1 [Example 139, Oxalate]; 5.1
CCN1CCN(c2nc(-c3ccc(OCC(C)O)cc3)cc3sccc23)CC1 (stereo not drawn) [Example 287]; 0.87

1 = CCN1CCN(c2nc(-c3ccc(OC)c(OC)c3)cc3ccccc23)CC1 [Example 14, Dihydrochloride]
2 = CN1CCN(c2nc(-c3ccc(OCCO)cc3)cc3ccsc23)CC1 [Example 253, Hydrochloride]
Incoming: In the pair 1 and 2 , the larger recorded Ki belongs to which? When you have decided, please share the label of that item.
Outgoing: 1
(1: 35 nM, 2: 5.98 nM)

I = CCN1CCN(c2nc(-c3ccc(C#CCO)cc3)cc3sccc23)CC1 [Example 464]
II = CCS(=O)(=O)NCc1ccc(-c2cc3ccccc3c(N3CCN(CCO)CC3)n2)cc1 [Example 243, Hydrochloride]
III = CCN1CCN(c2nc(-c3ccc(S(=O)(=O)NCCO)cc3)cc3ccccc23)CC1 [Example 347, dihydrochloride]
Incoming: Ranking field: Ki; order: falling. Labels, ranked as asked.
Outgoing: III, II, I

I = CCN1CCN(c2nc(-c3ccc(CCC(C)(C)O)cc3)cc3ccsc23)CC1 [Example 439, dihydrochloride]
II = CCN1CCN(c2nc(-c3ccc(CO)cc3)cc3ccccc23)CC1 [Example 17, hydrochloride]
III = CCN1CCN(c2nc(-c3ccc(OCC(C)O)cc3)cc3cccnc23)CC1 (stereo in doubt) [Example 246, Dihydrochloride]
IV = CCN1CCN(c2nc(C(=O)c3ccccc3OC)cc3ccccc23)CC1 [Example 111, Oxalate]
V = CCN1CCN(c2nc(-c3ccc(C4CCOCC4)nc3)cc3ccccc23)CC1 [Example 156, oxalate]
Incoming: List the 5 entries from lowest Ki to highest Ki value. Labels, ranked as asked.
Outgoing: V, I, III, II, IV

A = CCN1CCN(c2nc(-c3ccc(S(=O)(=O)CC)cc3)cc3ccccc23)CC1 [Example 366, dihydrochloride]
B = CCN1CCN(c2nc(-c3ccc(CCCO)cc3)cc3ccoc23)CC1 [Example 299, dihydrochloride]
Incoming: Given the two records A and B , choose the one whose Ki value is lower. When you have decided, please share the label of that item.
Outgoing: A

I = CCN1CCN(c2nc(-c3ccc(N4CCOCC4)cn3)cc3ccccc23)CC1 [Example 148, trihydrochloride]
II = CCN1CCN(c2nc(-c3ccc(OCCCSC)cc3)cc3ccccc23)CC1 [Example 54, Hydrochloride]
Incoming: Given the two records I and II , choose the one whose Ki value is lower. When you have decided, please share the label of that item.
Outgoing: II

A = CCN1CCN(c2nc(-c3ccc([C@H]4CC[C@H](O)CC4)cc3)cc3ccccc23)CC1 [Example 398, Dihydrochloride]
B = CCCCC(O)c1ccc(-c2cc3ccsc3c(N3CCN(CC)CC3)n2)cc1 (stereo not drawn) [Example 254, Dihydrochloride]
Incoming: Given the two records A and B , choose the one whose Ki value is lower. When you have decided, please share the label of that item.
Outgoing: A
(A: 5.9 nM, B: 29.2 nM)

====

# Lookup of reported melting point keyed by entry
Structures can show the parent of a compound that is named as a salt.

Example compounds with recorded melting point:
CCC(O)c1ccc(-c2cc3ccccc3c(N3CCN(CC)CC3)n2)cc1 (stereo not shown) (as salt: hydrochloride); 143 to 144 °C
COc1ccc(-c2cc3ccccc3c(N3CCN(C(C)C)CC3)n2)cc1 (as salt: hydrochloride); 220 °C (dec.)
CCN1CCN(c2nc(-c3ccc(OCCO)c(Cl)c3)cc3ccccc23)CC1 (as salt: hydrochloride); 138 to 140 °C

Incoming: Reported melting point for CCN1CCN(c2nc(-c3ccc(OC)cc3)cc3ccncc23)CC1 (as salt: hydrochloride) : what is it?
Outgoing: 222 °C (dec.)

====

molecular target: serotonin 1A receptor (Rattus norvegicus); construct: To the receptor fraction of the hippocampus were added a test compound and 0.5 nM of [^3H]; 8-hydroxy-dipropylaminotetralin; from tissue; host or cells: rat hippocampus membrane fraction; assay: Binding test on [3H] 8-hydroxy-dipropylaminotetralin, hippocampus receptor fraction; parameters: species or system SD rats; settings: rat hippocampus receptor fraction, 0.5 nM [3H] 8-OH-DPAT, room temperature 30 min; read-out: 5HT1
Sequence (P19327 whole entry): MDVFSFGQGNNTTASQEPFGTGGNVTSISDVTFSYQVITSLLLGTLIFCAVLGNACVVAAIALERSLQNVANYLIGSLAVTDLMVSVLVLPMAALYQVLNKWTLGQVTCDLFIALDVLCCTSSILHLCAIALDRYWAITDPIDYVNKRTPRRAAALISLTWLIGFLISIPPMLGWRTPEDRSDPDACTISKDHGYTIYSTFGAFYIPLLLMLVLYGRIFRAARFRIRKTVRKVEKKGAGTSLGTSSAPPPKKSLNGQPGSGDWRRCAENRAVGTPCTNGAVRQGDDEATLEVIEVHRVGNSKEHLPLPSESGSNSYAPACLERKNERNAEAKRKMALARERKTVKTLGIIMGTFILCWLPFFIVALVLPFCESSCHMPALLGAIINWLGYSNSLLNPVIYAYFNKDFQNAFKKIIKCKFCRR
Where a name gives a salt, the structure may show the parent alone.
Readout label: Ki (nM)

Example compounds with recorded Ki:
CCCC(=O)Nc1ncc(-c2cc3ccccc3c(N3CCN(CC)CC3)n2)cn1 [Example 174]; 29.1
CCN1CCN(c2nc(-c3ccc(CC(C)(C)CO)cc3)cc3ccsc23)CC1 [Example 442, dihydrochloride]; 23.2
CCOCCCc1ccc(-c2cc3ccccc3c(N3CCN(CC)CC3)n2)cn1 [Example 142, Oxalate]; 3.3
CCN1CCN(c2nc(-c3cnc(N4CCOCC4)s3)cc3ccccc23)CC1 [Example 173, dihydrochloride]; 3.9
CCN1CCN(c2nc(-c3ccc(OCCO)nc3)cc3ccsc23)CC1 [Example 268, Oxalate]; 16.5
CCN1CCN(c2nc(-c3ccc(S(=O)(=O)NC4CC4)cc3)cc3ccccc23)CC1 [Example 363, dihydrochloride]; 3.5

1 = CCNC(=O)c1ccc(-c2cc3ccsc3c(N3CCN(CC)CC3)n2)cc1 [Example 448, dihydrochloride]
2 = CCN1CCN(c2nc(-c3ccc(CCC(C)O)cc3)cc3cccnc23)CC1 (stereo not shown) [Example 248, Dihydrochloride]
Incoming: In the pair 1 and 2 , the larger recorded Ki belongs to which? When you have decided, please share the label of that item.
Outgoing: 2

1 = CCN1CCN(c2nc(-c3ccc4c(c3)OCCO4)cc3ccccc23)CC1 [Example 332, dihydrochloride]
2 = CCN1CCN(c2nc(-c3ccc(OCCO)c(OC)c3)cc3ccccc23)CC1 [Example 340, dihydrochloride]
3 = CCN1CCN(c2nc(-c3ccc(CCCO)cc3)cc3ccsc23)CC1 [Example 432, hydrochloride]
Incoming: List the 3 entries from lowest Ki to highest Ki value. Labels, ranked as asked.
Outgoing: 3, 1, 2

P = CCN1CCN(c2nc(Sc3ccccc3)cc3ccccc23)CC1 [Example 374, oxalate]
Q = CCN1CCN(c2nc(-c3ccc(CCCO)c(OC)c3)cc3ccsc23)CC1 [Example 433, hydrochloride]
R = CCN1CCN(c2nc(-c3ccc(CCCO)cc3)cc3ccoc23)CC1 [Example 299, dihydrochloride]
Incoming: List the 3 entries from lowest Ki to highest Ki value. Labels, ranked as asked.
Outgoing: R, Q, P
(R: 0.37 nM, Q: 20.6 nM, P: 44.5 nM)

====

Structures can show the parent of a compound that is named as a salt.
# Lookup of reported melting point keyed by entry

Example compounds with recorded melting point:
CCN1CCN(c2nc(-c3ccc(OCCO)cc3)cc3ccoc23)CC1 (as salt: oxalate); 145 to 152 °C
CCN1CCN(c2nc(-c3ccc(OC)cc3)cc3cc(F)ccc23)CC1 (as salt: hydrochloride); 131 to 135 °C
CCCCS(=O)(=O)Nc1ccc(-c2cc3ccccc3c(N3CCN(CC)CC3)n2)cc1 (as salt: hydrochloride); 160 to 163 °C
CCN1CCN(c2nc(-c3ccc(CCCO)cc3)cc3ccccc23)CC1 (as salt: hydrochloride); 116 to 119 °C
CCN1CCN(Cc2nc(-c3ccc(OC)cc3)cc3ccccc23)CC1 (as salt: oxalate); 219 to 221 °C
CCN1CCN(c2nc(-c3ccc(C(O)C(C)(C)CO)cc3)cc3ccccc23)CC1 (stereo not shown) (as salt: hydrochloride) [Example 391, Dihydrochloride]; 150.5 to 151.5 °C

Switching to the query record.
Incoming: Reported melting point for CCN1CCN(c2nc(-c3ccc(CCO)cc3)cc3ccccc23)CC1 (as salt: hydrochloride) [Example 351, dihydrochloride] : what is it?
Outgoing: 134 to 136 °C

Data provenance is patent US6875761B2.
